# study.target: Benzodiazepine Receptors
# assay.notes: Benzodiazepine receptor binding affinity: displacement of 3H-diazepam from rat synaptosomal membranes
# condition.description: 3H-diazepam, 4° C., 15 min, triplicate
measurement.kind: Ki

1) CN1C(=O)CN=C(c2ccccc2)c2cc(Cl)ccc21 [Diazepam] : 7.7 nM
2) CN1C(=O)CN=C(c2ccccc2F)c2cc(Cl)ccc21 [Fludiazepam] : 1 nM

# context switch: different compound, same Ki
*Q* Consider the compound shown here: CN1C(=O)CN=C(c2ccccc2I)c2cc(Cl)ccc21 [2'-Iododiazepam] What is its recorded Ki?
*A* 0.21 nM
